I'd appreciate it if you could supply pKd values for the items below.
study-target: T1, PCSK9 (proprotein convertase subtilisin/kexin type 9), His-tagged, full-length (human, UniProt Q8NBP7 31-692)
T1 construct: Captured by the His tag (SPR Methods 1 and 2), amine-coupled (Method 3), or His-tagged in TR-FRET; also called His-PCSK9
T1 sequence (Q8NBP7 31-692 limits assumed): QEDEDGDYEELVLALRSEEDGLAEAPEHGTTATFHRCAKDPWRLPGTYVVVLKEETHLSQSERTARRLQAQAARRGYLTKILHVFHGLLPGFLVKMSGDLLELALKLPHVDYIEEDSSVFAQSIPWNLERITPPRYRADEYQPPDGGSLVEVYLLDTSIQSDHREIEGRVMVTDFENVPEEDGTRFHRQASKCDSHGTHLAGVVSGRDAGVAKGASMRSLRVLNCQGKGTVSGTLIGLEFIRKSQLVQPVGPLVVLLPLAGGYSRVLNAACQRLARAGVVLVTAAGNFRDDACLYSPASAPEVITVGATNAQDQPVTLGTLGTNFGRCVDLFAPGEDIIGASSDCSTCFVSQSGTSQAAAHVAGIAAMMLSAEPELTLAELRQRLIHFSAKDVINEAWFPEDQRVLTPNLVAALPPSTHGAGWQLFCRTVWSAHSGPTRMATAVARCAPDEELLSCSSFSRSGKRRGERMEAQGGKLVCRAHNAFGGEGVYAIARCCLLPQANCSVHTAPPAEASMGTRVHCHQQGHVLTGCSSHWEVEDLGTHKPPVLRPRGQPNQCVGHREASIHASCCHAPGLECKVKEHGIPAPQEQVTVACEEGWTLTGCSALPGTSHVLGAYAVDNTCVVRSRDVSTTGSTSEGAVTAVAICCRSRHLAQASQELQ
protocol: SPR, Method 3 (SensiQ Pioneer FE, target amine-coupled, gradient injection)
Bridge positions count the residues as written; N and C are the ends. Square brackets hold non-standard residues; d marks the D form. * marks the point of attachment. 5FAM = O=C1OC2(c3ccc(O)cc3Oc3cc(O)ccc32)c2ccc(C(=O)*)cc21; Ach = 2-aminocyclohexane-1-carboxylic acid; Dap = NC[C@H](N)C(=O)O
pKd field: float, defined as -log10 of concentration (mol/L).

// field: pKd; key: Ac-WNLVRIGLLR-NH2 [Compound 53] ; value = 3.65

// field: pKd; key: Ac-ALMPWNLVRIGLLR-NH2 [Compound 45] ; value = 3.93

// field: pKd; key: 5FAM-SGSGCRLPWNLQRIGLPC-NH2 (disulfide 5-18 (inferred), Two Cys, disulfide-cyclized) [Compound 34] ; value = 5.35

// field: pKd; key: Ac-CFIPWNLQRIGLLC-NH2 (disulfide 1-14 (inferred), Two Cys, disulfide-cyclized) [Compound 31] ; value = 5.23

// field: pKd; key: Ac-PWNLVRIGLLR-NH2 [Compound 52] ; value = 4.75

// field: pKd; key: Ac-CRL[Ach]WNLQRIGLPC-NH2 (disulfide 1-14 (inferred), Two Cys, disulfide-cyclized) [Compound 82] ; value = 3.93

// field: pKd; key: Ac-CRLPWNLQRIGLPC-NH2 (disulfide 1-14 (inferred), Two Cys, disulfide-cyclized) [Compound 32] ; value = 5.89

// field: pKd; key: Ac-CRLPWNLARIGLPC-NH2 (disulfide 1-14 (inferred), Two Cys, disulfide-cyclized) [Compound 73] ; value = 4.96

// field: pKd; key: Ac-GSGCWNL[Dap]RIGSQGC-NH2 (disulfide 4-15; SMILES CC[C@H](C)[C@@H]1NC(=O)[C@H](CCCNC(=N)N)NC(=O)[C@H](CN)NC(=O)[C@H](CC(C)C)NC(=O)[C@H](CC(N)=O)NC(=O)[C@H](Cc2c[nH]c3ccccc23)NC(=O)[C@@H](NC(=O)CNC(=O)[C@H](CO)NC(=O)CNC(C)=O)CSSC[C@@H](C(N)=O)NC(=O)CNC(=O)[C@H](CCC(N)=O)NC(=O)[C@H](CO)NC(=O)CNC1=O, Two Cys, disulfide-cyclized; also called Ac-GSG-CWNL(Dpr)RIGSQGC-NH2) [Compound 97] ; value = 3.28

// field: pKd; key: Ac-LMPWNLVRIGLLR-NH2 [Compound 50] ; value = 4.79

// field: pKd; key: Ac-FCLWNLKRIGAQCWF-NH2 (disulfide 2-13 (inferred), Two Cys, disulfide-cyclized) [Compound 96] ; value = 4.33

// data source = patent US20200283478A1
